Recorded IC50 by entry
Target: PI3-kinase p110-alpha/p85-alpha (Homo sapiens, UniProt P42336)
Sequence (P27986 whole entry): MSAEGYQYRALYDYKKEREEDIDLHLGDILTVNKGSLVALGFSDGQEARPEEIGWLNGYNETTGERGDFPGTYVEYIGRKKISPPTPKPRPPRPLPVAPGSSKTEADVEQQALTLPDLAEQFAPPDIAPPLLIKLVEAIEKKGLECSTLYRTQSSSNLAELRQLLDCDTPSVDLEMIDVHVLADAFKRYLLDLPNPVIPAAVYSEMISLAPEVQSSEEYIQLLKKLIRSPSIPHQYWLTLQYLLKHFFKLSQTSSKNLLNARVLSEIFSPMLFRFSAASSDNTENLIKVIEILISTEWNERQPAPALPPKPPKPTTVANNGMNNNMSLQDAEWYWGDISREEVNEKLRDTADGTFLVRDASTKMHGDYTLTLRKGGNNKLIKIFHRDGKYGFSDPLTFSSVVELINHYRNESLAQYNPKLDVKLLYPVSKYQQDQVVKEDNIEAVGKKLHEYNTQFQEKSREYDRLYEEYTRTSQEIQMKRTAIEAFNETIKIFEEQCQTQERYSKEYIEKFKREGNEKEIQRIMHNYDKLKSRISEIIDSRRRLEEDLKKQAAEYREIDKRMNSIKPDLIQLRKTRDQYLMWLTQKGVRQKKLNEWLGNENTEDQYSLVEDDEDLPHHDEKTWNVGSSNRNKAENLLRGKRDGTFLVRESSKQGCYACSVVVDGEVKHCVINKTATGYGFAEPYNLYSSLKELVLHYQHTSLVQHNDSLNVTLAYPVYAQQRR
Sequence (P42336 whole entry): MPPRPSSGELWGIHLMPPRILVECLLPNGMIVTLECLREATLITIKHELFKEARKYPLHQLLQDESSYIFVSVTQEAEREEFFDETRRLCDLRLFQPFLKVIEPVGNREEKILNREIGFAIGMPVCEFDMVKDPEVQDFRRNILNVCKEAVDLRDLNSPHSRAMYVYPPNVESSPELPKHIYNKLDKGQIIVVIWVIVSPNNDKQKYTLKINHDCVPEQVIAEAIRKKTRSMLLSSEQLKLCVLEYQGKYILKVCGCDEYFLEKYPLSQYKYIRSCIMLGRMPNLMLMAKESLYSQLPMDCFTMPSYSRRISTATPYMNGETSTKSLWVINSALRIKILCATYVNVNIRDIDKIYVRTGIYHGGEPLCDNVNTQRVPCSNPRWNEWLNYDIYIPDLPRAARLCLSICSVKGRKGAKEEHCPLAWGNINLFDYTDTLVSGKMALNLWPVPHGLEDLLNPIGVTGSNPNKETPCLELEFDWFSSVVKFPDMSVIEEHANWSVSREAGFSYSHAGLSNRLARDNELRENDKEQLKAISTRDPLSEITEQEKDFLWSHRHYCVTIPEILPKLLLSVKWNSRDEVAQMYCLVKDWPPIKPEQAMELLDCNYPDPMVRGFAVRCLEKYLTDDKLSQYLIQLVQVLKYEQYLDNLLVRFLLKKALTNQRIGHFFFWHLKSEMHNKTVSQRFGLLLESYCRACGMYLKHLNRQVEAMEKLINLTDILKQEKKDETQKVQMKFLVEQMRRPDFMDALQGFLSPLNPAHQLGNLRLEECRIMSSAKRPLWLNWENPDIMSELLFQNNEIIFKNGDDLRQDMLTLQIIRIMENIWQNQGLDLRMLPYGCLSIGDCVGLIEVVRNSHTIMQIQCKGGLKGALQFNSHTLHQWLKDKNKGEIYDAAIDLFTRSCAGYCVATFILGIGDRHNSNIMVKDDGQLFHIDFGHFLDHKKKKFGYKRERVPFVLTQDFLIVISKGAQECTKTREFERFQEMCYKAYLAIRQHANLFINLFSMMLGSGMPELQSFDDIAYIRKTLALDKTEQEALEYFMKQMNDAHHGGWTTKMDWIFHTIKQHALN
Assay: Inhibition of N-terminal His6-tagged recombinant full-length human p110alpha/untagged recombinant full length human p85alpha expressed in baculovirus infected Sf21 cells using phosphatidylinositol as substrate in presence of gamma-32P-ATP after 5 mins by thin layer chromatographic method
measured-property: IC50

| mol | measured-property | value-reported |
| --- | --- | --- |
| Cc1ccccc1-n1c(Cn2nc(-c3ccc(O)cc3)c3c(N)ncnc32)cc2cccc(C)c2c1=O | IC50 | > 10 µM |
| Cc1cccc2cc(Cn3nc(-c4cc(O)cc(F)c4)c4c(N)ncnc43)n(-c3ccccc3)c(=O)c12 | IC50 | < 1 µM |
| CC(=O)Nc1nc2ccc(-c3nn(Cc4cc5cccc(C)c5c(=O)n4C4CC4)c4ncnc(N)c34)cc2s1 | IC50 | < 100 µM |
| Cc1cccc2cc(Cn3nc(C#C[C@@H](C)O)c4c(N)ncnc43)n(C3CCCC3)c(=O)c12 | IC50 | > 10 µM |
| Cc1cccc2cc(Cn3nc(-c4cccc(F)c4)c4c(N)ncnc43)n(-c3ccccc3F)c(=O)c12 | IC50 | > 10 µM |
| Cc1ccccc1-n1c(Cn2nc(-c3ccc(Cl)c(O)c3)c3c(N)ncnc32)cc2ccccc2c1=O | IC50 | > 10 µM |
| Cc1ccccc1-n1c(Cn2nc(-c3ccc(F)c(O)c3)c3c(N)ncnc32)cc2cccc(F)c2c1=O | IC50 | > 10 µM |
| Cc1cccc2cc(Cn3nc(I)c4c(N)ncnc43)n(-c3ccccc3O)c(=O)c12 | IC50 | > 10 µM |

---

Target: PI3-kinase p110-alpha/p85-alpha (Homo sapiens)
Test: Inhibition of N-terminal His6-tagged recombinant full-length human p110alpha/untagged recombinant full length human p85alpha expressed in baculovirus infected Sf21 cells using phosphatidylinositol as substrate in presence of gamma-32P-ATP after 5 mins by thin layer chromatographic method

| mol | measured-target | IC50 |
| --- | --- | --- |
| Cc1cccc2cc(Cn3nc(-c4cn[nH]c4)c4c(N)ncnc43)n(-c3ccccc3Cl)c(=O)c12 | PI3-kinase p110-alpha/p85-alpha (Homo sapiens) | > 10 µM |
| CC(=O)Nc1nc2ccc(-c3nn(Cc4cc5cccc(C)c5c(=O)n4C4CCC4)c4ncnc(N)c34)cc2s1 | PI3-kinase p110-alpha/p85-alpha (Homo sapiens) | < 100 µM |
| Cc1ccccc1-n1c(Cn2nc(-c3ccc4ncnc(N)c4c3)c3c(N)ncnc32)cc2cccc(C)c2c1=O | PI3-kinase p110-alpha/p85-alpha (Homo sapiens) | < 10 µM |
| Cc1cccc2cc(Cn3nc(-c4ccc(O)c(Cl)c4)c4c(N)ncnc43)n(-c3ccccc3F)c(=O)c12 | PI3-kinase p110-alpha/p85-alpha (Homo sapiens) | > 10 µM |
| Cc1cccc2cc(Cn3nc(C#C[C@@H](C)O)c4c(N)ncnc43)n(-c3ccccc3Cl)c(=O)c12 | PI3-kinase p110-alpha/p85-alpha (Homo sapiens) | > 10 µM |
| Cc1ccccc1-n1c(Cn2nc(CN3CCOCC3)c3c(N)ncnc32)cc2cccc(C)c2c1=O | PI3-kinase p110-alpha/p85-alpha (Homo sapiens) | > 10 µM |
| Cc1cccnc1-n1c(Cn2nc(I)c3c(N)ncnc32)cc2cccc(C)c2c1=O | PI3-kinase p110-alpha/p85-alpha (Homo sapiens) | > 10 µM |
| Cc1ccccc1-n1c(Cn2nc(-c3ccc(F)c(O)c3)c3c(N)ncnc32)cc2ccccc2c1=O | PI3-kinase p110-alpha/p85-alpha (Homo sapiens) | > 10 µM |
| Cc1cccc2cc(Cn3nc(C#C[C@@H](C)O)c4c(N)ncnc43)n(C3CC3)c(=O)c12 | PI3-kinase p110-alpha/p85-alpha (Homo sapiens) | > 10 µM |

---

pIC50 values, listed per item
Target: Phosphatidylinositol 4,5-bisphosphate 3-kinase catalytic subunit gamma isoform (Homo sapiens, UniProt P48736)
Sequence (P48736 whole entry, canonical isoform): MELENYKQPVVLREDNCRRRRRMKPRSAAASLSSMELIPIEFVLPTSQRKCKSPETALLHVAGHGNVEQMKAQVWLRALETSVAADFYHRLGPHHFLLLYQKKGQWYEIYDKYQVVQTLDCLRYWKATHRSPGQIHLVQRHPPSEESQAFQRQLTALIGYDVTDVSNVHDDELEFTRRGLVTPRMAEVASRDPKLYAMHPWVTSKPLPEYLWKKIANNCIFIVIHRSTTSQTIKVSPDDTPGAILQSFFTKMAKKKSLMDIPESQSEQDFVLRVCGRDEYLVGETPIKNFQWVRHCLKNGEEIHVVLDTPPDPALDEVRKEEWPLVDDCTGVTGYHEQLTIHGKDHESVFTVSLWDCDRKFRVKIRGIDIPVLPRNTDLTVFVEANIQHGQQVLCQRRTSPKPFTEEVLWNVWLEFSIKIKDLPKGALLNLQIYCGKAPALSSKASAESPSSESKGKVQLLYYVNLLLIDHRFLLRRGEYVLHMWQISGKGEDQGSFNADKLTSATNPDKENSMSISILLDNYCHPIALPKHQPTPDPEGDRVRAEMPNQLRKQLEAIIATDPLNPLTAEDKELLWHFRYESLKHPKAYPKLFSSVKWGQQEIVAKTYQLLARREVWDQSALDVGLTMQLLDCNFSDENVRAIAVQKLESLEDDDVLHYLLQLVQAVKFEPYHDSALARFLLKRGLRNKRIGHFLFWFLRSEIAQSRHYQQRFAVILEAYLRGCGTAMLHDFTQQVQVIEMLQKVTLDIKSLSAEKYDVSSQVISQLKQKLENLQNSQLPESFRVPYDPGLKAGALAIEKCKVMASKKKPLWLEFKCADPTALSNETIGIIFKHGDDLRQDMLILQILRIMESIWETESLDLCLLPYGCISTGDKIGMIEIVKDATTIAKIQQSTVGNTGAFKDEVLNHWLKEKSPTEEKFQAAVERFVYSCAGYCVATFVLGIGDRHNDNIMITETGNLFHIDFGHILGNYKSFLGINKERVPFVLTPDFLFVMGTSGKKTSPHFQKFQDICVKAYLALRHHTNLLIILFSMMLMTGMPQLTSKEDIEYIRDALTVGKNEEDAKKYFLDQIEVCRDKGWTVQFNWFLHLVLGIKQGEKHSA
Assay: Inhibition of recombinant human C-terminal His6-tagged p110gamma expressed in insect cells using phosphatidylinositol as substrate in presence of gamma-32P-ATP after 5 mins by thin layer chromatographic method
pIC50: −log10 of the molar value.

| mol | pIC50 |
| --- | --- |
| Cc1cccnc1-n1c(Cn2nc(-c3cccc(O)c3)c3c(N)ncnc32)cc2ccccc2c1=O | > 5.00 |
| Cc1cccc2cc(Cn3nc(/C=C4/SC(=O)NC4=O)c4c(N)ncnc43)n(-c3ccccc3F)c(=O)c12 | > 7.00 |
| Cc1cccc2cc(Cn3nc(-c4ccn[nH]4)c4c(N)ncnc43)n(-c3ccccc3F)c(=O)c12 | > 5.00 |
| Cc1ccccc1-n1c(Cn2nc(-c3ccc(F)cc3)c3c(N)ncnc32)cc2cccc(C)c2c1=O | > 6.00 |
| Cc1ccccc1-n1c(Cn2nc(-c3cccc(F)c3)c3c(N)ncnc32)cc2cccc(C)c2c1=O | > 6.00 |
| Cc1cccc2cc(Cn3nc(-c4cn[nH]c4)c4c(N)ncnc43)n(-c3cccc(F)c3)c(=O)c12 | > 6.00 |
| Cc1cccc2cc(Cn3nc(-c4ccc5oc(N)nc5c4)c4c(N)ncnc43)n(-c3ccccc3)c(=O)c12 | > 7.00 |
| Cc1cccc2cc([C@H](C)Nc3ncnc4[nH]cc(C#N)c34)n(C3CC3)c(=O)c12 | > 7.00 |

---

Molecular target: PI3K p110 beta/p85 alpha (Homo sapiens)
Sequence (P42338 whole entry, one chain of several): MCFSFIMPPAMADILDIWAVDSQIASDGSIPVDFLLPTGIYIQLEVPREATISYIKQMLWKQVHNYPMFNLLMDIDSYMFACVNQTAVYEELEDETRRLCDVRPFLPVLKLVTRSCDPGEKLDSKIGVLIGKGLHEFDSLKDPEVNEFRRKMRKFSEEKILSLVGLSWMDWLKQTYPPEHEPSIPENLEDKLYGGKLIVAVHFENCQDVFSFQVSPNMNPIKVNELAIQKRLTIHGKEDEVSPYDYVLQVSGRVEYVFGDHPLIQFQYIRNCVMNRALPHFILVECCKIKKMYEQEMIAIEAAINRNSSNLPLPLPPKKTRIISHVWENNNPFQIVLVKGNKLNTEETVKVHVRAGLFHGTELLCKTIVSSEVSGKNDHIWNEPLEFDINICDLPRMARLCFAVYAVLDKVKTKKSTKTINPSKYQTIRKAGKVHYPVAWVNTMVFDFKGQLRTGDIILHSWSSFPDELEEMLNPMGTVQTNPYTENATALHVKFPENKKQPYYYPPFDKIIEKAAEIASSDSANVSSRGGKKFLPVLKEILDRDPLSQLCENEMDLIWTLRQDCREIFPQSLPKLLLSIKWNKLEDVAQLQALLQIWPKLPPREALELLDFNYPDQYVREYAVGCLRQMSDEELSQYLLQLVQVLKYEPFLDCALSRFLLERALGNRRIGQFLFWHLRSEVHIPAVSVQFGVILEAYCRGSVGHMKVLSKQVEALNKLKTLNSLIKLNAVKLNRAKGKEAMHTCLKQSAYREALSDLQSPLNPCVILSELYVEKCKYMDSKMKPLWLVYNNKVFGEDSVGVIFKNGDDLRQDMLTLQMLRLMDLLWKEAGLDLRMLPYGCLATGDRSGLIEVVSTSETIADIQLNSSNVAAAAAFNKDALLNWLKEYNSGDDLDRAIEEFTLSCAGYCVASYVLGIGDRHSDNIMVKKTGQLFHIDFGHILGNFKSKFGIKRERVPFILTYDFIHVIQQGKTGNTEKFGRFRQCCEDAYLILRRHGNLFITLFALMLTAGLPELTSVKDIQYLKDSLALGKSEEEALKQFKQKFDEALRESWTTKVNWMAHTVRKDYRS
Test: Inhibition of N-terminal His6-tagged recombinant full-length human p110beta/untagged recombinant full length p85alpha expressed in baculovirus infected Sf21 cells using phosphatidylinositol as substrate in presence of gamma-32P-ATP after 5 mins by thin layer chromatographic method
pIC50: −log10 of the molar value.

| mol | pIC50 |
| --- | --- |
| Cc1cccc2cc(Cn3nc(-c4cc(O)cc(F)c4)c4c(N)ncnc43)n(C3CCC3)c(=O)c12 | > 5.00 |
| Cc1ccccc1-n1c(Cn2nc(-c3cc(O)cc(F)c3)c3c(N)ncnc32)cc2cccc(C)c2c1=O | > 6.00 |
| Cc1cccc2cc(Cn3nc(-c4cnn(CCO)c4)c4c(N)ncnc43)n(-c3ccccc3F)c(=O)c12 | < 5.00 |
| Cc1ccccc1-n1c(Cn2nc(-c3cccc(O)c3)c3c(N)ncnc32)cc2cccc(C)c2c1=O | > 5.00 |

---

Target: Phosphatidylinositol 4,5-bisphosphate 3-kinase catalytic subunit gamma isoform (Homo sapiens)
Assay: Inhibition of recombinant human C-terminal His6-tagged p110gamma expressed in insect cells using phosphatidylinositol as substrate in presence of gamma-32P-ATP after 5 mins by thin layer chromatographic method
measured-property: IC50

| mol | measured-property | value-reported |
| --- | --- | --- |
| Cc1cccc2cc([C@H](C)Nc3ncnc4[nH]cc(F)c34)n(-c3ccccc3)c(=O)c12 | IC50 | < 100 nM |
| Cc1cccc2cc(Cn3nc(I)c4c(N)ncnc43)n(-c3ccccc3OCCN3CCOCC3)c(=O)c12 | IC50 | < 1000 nM |
| Cc1cccc2cc(Cn3nc(C#C[C@@H](C)O)c4c(N)ncnc43)n(-c3ccccc3Cl)c(=O)c12 | IC50 | < 1000 nM |
| Cc1cccc2cc([C@H](C)Nc3ncnc4[nH]nc(Cl)c34)n(-c3ccccc3)c(=O)c12 | IC50 | < 100 nM |
| COc1cc(-c2nn(Cc3cc4cccc(C)c4c(=O)n3-c3ccccc3F)c3ncnc(N)c23)ccc1Cl | IC50 | < 1000 nM |

---

Overview of reported IC50 across a group of molecules:
Molecular target: PI3K p110 beta/p85 alpha (Homo sapiens)
Experiment: Inhibition of N-terminal His6-tagged recombinant full-length human p110beta/untagged recombinant full length p85alpha expressed in baculovirus infected Sf21 cells using phosphatidylinositol as substrate in presence of gamma-32P-ATP after 5 mins by thin layer chromatographic method

| mol | measured-target | IC50 |
| --- | --- | --- |
| Nc1ncnc2c1c(-c1cc(O)cc(F)c1)nn2Cc1cc2cccc(Cl)c2c(=O)n1C1CC1 | PI3K p110 beta/p85 alpha (Homo sapiens) | < 0.1 µM |
| Cc1cccc2cc([C@H](C)Nc3ncnc4[nH]cc(Cl)c34)n(-c3ccccc3)c(=O)c12 | PI3K p110 beta/p85 alpha (Homo sapiens) | < 0.1 µM |
| Cc1cccc2cc(Cn3nc(-c4ccc(F)c(O)c4)c4c(N)ncnc43)n(C(C)C)c(=O)c12 | PI3K p110 beta/p85 alpha (Homo sapiens) | < 10 µM |
| Cc1cccc2cc(Cn3nc(-c4cccc(O)c4)c4c(N)ncnc43)n(C3CCCCC3)c(=O)c12 | PI3K p110 beta/p85 alpha (Homo sapiens) | < 10 µM |
| Cc1cccc2cc(Cn3nc(Br)c4c(N)ncnc43)n(-c3ccccc3F)c(=O)c12 | PI3K p110 beta/p85 alpha (Homo sapiens) | > 10 µM |

---

Target: PI3-kinase p110-delta/p85-alpha (Homo sapiens, UniProt O00329)
Sequence (P27986 whole entry): as the sequence (P27986 whole entry) above
Sequence (O00329 whole entry): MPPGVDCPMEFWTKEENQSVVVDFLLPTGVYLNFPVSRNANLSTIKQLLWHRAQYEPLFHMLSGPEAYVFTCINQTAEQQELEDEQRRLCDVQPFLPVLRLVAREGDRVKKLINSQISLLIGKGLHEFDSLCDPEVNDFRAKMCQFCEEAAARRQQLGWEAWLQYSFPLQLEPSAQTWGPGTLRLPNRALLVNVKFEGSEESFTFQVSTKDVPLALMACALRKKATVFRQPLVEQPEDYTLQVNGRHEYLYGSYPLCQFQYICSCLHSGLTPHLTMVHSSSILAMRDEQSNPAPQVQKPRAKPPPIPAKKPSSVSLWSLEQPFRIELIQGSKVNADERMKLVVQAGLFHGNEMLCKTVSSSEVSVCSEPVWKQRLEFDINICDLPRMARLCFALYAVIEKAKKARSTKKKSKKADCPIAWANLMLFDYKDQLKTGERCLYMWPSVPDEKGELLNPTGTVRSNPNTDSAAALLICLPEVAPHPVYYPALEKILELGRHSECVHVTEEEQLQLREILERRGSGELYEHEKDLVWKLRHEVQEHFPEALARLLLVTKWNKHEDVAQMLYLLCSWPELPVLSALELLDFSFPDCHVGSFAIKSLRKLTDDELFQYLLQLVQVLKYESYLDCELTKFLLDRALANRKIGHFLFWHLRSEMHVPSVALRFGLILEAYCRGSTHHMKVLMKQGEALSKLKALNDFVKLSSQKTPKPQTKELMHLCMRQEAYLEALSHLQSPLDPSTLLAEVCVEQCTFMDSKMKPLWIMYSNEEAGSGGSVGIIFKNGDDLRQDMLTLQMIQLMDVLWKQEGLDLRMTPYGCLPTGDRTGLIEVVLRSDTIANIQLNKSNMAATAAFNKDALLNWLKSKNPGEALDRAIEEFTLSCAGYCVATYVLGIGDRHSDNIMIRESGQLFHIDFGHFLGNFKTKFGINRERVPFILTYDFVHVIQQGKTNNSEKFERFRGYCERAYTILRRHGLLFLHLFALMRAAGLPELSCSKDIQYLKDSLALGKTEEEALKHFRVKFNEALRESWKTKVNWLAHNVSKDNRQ
Experiment: Inhibition of N-terminal His6-tagged recombinant full-length human p110delta/untagged recombinant full length p85alpha expressed in baculovirus infected Sf21 cells using phosphatidylinositol as substrate in presence of gamma-32P-ATP after 5 mins by thin layer chromatographic method
pIC50: −log10 of the molar value.
pIC50 values by entry

| compound | measured-target | pIC50 |
| --- | --- | --- |
| Cc1cccc2cc(C(C)Nc3ncnc4[nH]cnc34)n(C(C)C)c(=O)c12 (centres undefined) | PI3-kinase p110-delta/p85-alpha (Homo sapiens, UniProt O00329) | > 7.00 |
| Cc1cccc2cc(Cn3nc(-c4cccc(O)c4)c4c(N)ncnc43)n(C3CCCCC3)c(=O)c12 | PI3-kinase p110-delta/p85-alpha (Homo sapiens, UniProt O00329) | > 7.00 |
| Cc1ccccc1-n1c(Cn2nc(Br)c3c(N)ncnc32)cc2cccc(C)c2c1=O | PI3-kinase p110-delta/p85-alpha (Homo sapiens, UniProt O00329) | > 7.00 |
| Cc1cccnc1-n1c(Cn2nc(-c3cccc(O)c3)c3c(N)ncnc32)cc2ccccc2c1=O | PI3-kinase p110-delta/p85-alpha (Homo sapiens, UniProt O00329) | > 6.00 |
| Cc1ccccc1-n1c(Cn2nc(/C=C3/SC(=O)NC3=O)c3c(N)ncnc32)cc2cccc(C)c2c1=O | PI3-kinase p110-delta/p85-alpha (Homo sapiens, UniProt O00329) | > 7.00 |
| Cc1cccc2cc(C(C)Nc3ncnc4[nH]cnc34)n(-c3c(F)cccc3F)c(=O)c12 (centres undefined) | PI3-kinase p110-delta/p85-alpha (Homo sapiens, UniProt O00329) | > 7.00 |
| Cc1ccccc1-n1c(Cn2nc(I)c3c(N)ncnc32)cc2ccccc2c1=O | PI3-kinase p110-delta/p85-alpha (Homo sapiens, UniProt O00329) | > 6.00 |
| Cc1cccc2cc(Cn3nc(-c4ccc5oc(N)nc5c4)c4c(N)ncnc43)n(C3CCC3)c(=O)c12 | PI3-kinase p110-delta/p85-alpha (Homo sapiens, UniProt O00329) | > 7.00 |
| Cc1cccc2cc([C@H](C)Nc3nc(N)ncc3Cl)n(-c3ccccc3)c(=O)c12 | PI3-kinase p110-delta/p85-alpha (Homo sapiens, UniProt O00329) | > 7.00 |
| Cc1ccccc1-n1c(Cn2nc(-c3cn[nH]c3)c3c(N)ncnc32)cc2ccccc2c1=O | PI3-kinase p110-delta/p85-alpha (Homo sapiens, UniProt O00329) | > 6.00 |
| Cc1cccc2cc(Cn3nc(-c4ccc(O)c(Cl)c4)c4c(N)ncnc43)n(-c3ccccc3F)c(=O)c12 | PI3-kinase p110-delta/p85-alpha (Homo sapiens, UniProt O00329) | > 6.00 |
| Cc1ccccc1-n1c(Cn2nc(C#C[C@@H](C)O)c3c(N)ncnc32)cc2ccccc2c1=O | PI3-kinase p110-delta/p85-alpha (Homo sapiens, UniProt O00329) | > 6.00 |
| Cc1cccc2cc(C(C)Nc3ncnc4[nH]cnc34)n(C3CCCC3)c(=O)c12 (centres undefined) | PI3-kinase p110-delta/p85-alpha (Homo sapiens, UniProt O00329) | > 7.00 |
| CCC(Nc1ncnc2[nH]cnc12)c1cc2cccc(C)c2c(=O)n1C(C)C (centres undefined) | PI3-kinase p110-delta/p85-alpha (Homo sapiens, UniProt O00329) | > 7.00 |
| Cc1ccccc1-n1c(Cn2nc(-c3cccc(O)c3)c3c(N)ncnc32)cc2cccc(C)c2c1=O | PI3-kinase p110-delta/p85-alpha (Homo sapiens, UniProt O00329) | > 7.00 |
| Cc1cccc2cc(C(C)Nc3ncnc4[nH]cnc34)n(C3CCOCC3)c(=O)c12 (centres undefined) | PI3-kinase p110-delta/p85-alpha (Homo sapiens, UniProt O00329) | > 7.00 |
| CCc1nn(Cc2cc3cccc(C)c3c(=O)n2-c2ccccc2)c2ncnc(N)c12 | PI3-kinase p110-delta/p85-alpha (Homo sapiens, UniProt O00329) | > 7.00 |
| Cc1cccc2cc(Cn3nc(-c4cc(O)cc(F)c4)c4c(N)ncnc43)n(-c3ccccc3Cl)c(=O)c12 | PI3-kinase p110-delta/p85-alpha (Homo sapiens, UniProt O00329) | > 7.00 |
| Cc1cccc2cc([C@H](C)Nc3ncnc4[nH]nc(C#N)c34)n(-c3ccccc3)c(=O)c12 | PI3-kinase p110-delta/p85-alpha (Homo sapiens, UniProt O00329) | > 7.00 |

Reference for the values: ChEMBL document CHEMBL3879901
